biological target: human melanocortin-4 (MC-4) receptor (human, UniProt P32245); assay: displacement of 125I-NDP-alpha-MSH, membranes of HEK 293 cells with hMC4 (value column 1)
Square brackets hold non-standard residues; d marks the D form. Ends that are not written are not given here. Nle = CCCC[C@H](N)C(=O)O; Abu = CC[C@H](N)C(=O)O
# pIC50 values compiled below
When answering, recall that pIC50 equals minus log10 of the concentration in mol/L, and write that number alone.

Ask: Given RNS[Abu]KPPAPAC[Abu]DP[Abu]AS[Abu]QCRFFRSACSCRVL (disulfide (positions not given here)) [peptide of SEQ ID NO:15] , respond with its pIC50.
Reply: 6.10

Ask: Supply reported pIC50 belonging to this binder: HESCLGQQVP[Abu][Abu]DP[Abu]ATCYCRFFNAFCY[Abu]RKL (disulfide (positions not given here)) [peptide of SEQ ID NO:3]
Reply: 6.05

Ask: Provide measured pIC50 value, entry: Ac-[Nle]H[dF]RWK [NDP-alpha-MSH]
Reply: 8.10
